- System: Fer (mouse);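 further: frequency after pTyr selection over input frequency; kinase dosed for 20-30% of maximal phosphorylation in three min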
- assay_protocol: phosphorylation enrichment, bacterial display (enrichment ratio); higher = better substrate or ligand; peptides without Tyr show the background
Kindly return criterion met if reported phosphorylation enrichment is no lower than 0.5; return criterion not met if it is lower.

Illustrative cases are given below, each with its answer.
>>> class_assignment("LITLVYGCSRQ [TMPRSS6_Y290_S288L]")
"criterion met"
>>> class_assignment("SWSTSYSGFRF [NKAPL_Y91_YF]")
"criterion met"
>>> class_assignment("NDFGNYNQQPS [HNRNPA2B1_Y306]")
"criterion not met"
>>> class_assignment("LYEDRYLLGTS [ASS1_Y87]")
"criterion met"
>>> class_assignment("ERPGVHTNVVE [F11_Y608_Y608H]")
"criterion not met"
>>> class_assignment("EIIPFYGMSTY [FNDC3B_Y175]")
"criterion met"

Has PEFINYHQHNS [BTK_Y361_L358F] a recorded phosphorylation enrichment greater than or equal to 0.5?
criterion not met

// inclusive: phosphorylation enrichment at least 0.5? input: NYAKMYCNPDA [KNL1_Y489]
criterion met

// inclusive: phosphorylation enrichment at least 0.5? input: IFLENYNAGTF [CFI_Y421_H418L_YF]
criterion not met

Is it the case that EAIAKYDFKAT [GRB2_Y7] has phosphorylation enrichment reaching or exceeding 0.5?
criterion not met

Form field: phosphorylation enrichment at least 0.5? Entry: HILFRYPKEFQ [IDS_Y234_P231L]
criterion met

Hi team, for SGDINYGQFAQ [PLCG1_Y210_T209N] , is the recorded phosphorylation enrichment at or above 0.5?
criterion not met

Could you tell me if the measured phosphorylation enrichment of AHAGGYGAEAL [HBA1_Y25_E24G] reaches 0.5 or more?
criterion not met

---

- system: SHP2-C SH2;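 further: peptide library displayed on the E. coli surface as eCPX fusions, selected cells deep-sequenced, score is each peptide's frequency after selection divided by its frequency in the input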
- assay_protocol: SH2 binding enrichment of the phosphorylated peptide, bacterial display (enrichment ratio); higher = better substrate or ligand; peptides without Tyr show the background
property_name: SH2 binding enrichment
Answer field: number only, no words.

>>> experimental_value("SRGSSYNSIPK [FLNC_Y2625_S2626N]")
0.657
>>> experimental_value("LNCDRYSAGLL [PDE6A_Y275_V277A]")
0.595
>>> experimental_value("CNPRRYPVLMS [OR2T1_Y182_L180R]")
0.954
>>> experimental_value("GRQWNYVASMS [KLHL4_Y552]")
0.966
>>> experimental_value("SQSKGYRPKLY [SIPA1L3_Y1376_G1371S]")
0.662
>>> experimental_value("IPGGIYNADLN [CST4_Y35_D36N]")
0.646
>>> experimental_value("RQNRFYDAKVR [FKBP6_Y188]")
0.675
>>> experimental_value("RQLEIYRASRP [ERCC4_Y594]")
0.49

Next sequence, SH2 binding enrichment to be filled in.
Looking up CTTIHYNFMCF [TP53_Y234_N239Y_YF] , I found its SH2 binding enrichment recorded as 2.01

---

- System: Fer (mouse);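 further: 11-residue human phosphosite peptides and single-mutation variants displayed on the E. coli surface, counted by deep sequencing, each peptide's frequency after selection divided by its frequency in the unselected input library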;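 further: frequency after pTyr selection over input frequency; kinase dosed for 20-30% of maximal phosphorylation in three min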
- assay_protocol: phosphorylation enrichment, bacterial display (enrichment ratio); higher = better substrate or ligand; peptides without Tyr show the background
property_name: phosphorylation enrichment

Examples with their reported phosphorylation enrichment follow.
>>> experimental_value("SLLPDYEDEEE [ZNF830_Y159]")
0.64
>>> experimental_value("FQCKHYACIRQ [TIMP3_Y182_S179C_YF]")
0.379
>>> experimental_value("VTPSEYLEIVR [TMEM130_Y412_E407V]")
0.45
>>> experimental_value("QERPEYWDQET [HLA-A_Y83_G80R]")
1.14
>>> experimental_value("GADDSYYTARS [ZAP70_Y492]")
0.482

Recorded result, IRTDAYVPAMT [RPE65_Y89_R91P] , phosphorylation enrichment: 0.425

Reported phosphorylation enrichment ( MAQDIYRASYY [ALK_Y1278_R1275Q] ) = 0.451
